System: Mus musculus
assay-name: Anti-depressant-like activity in mouse assessed as time spent immobile at 1 mg/kg, ip administered 60 mins prior to testing measured for 6 mins by tail suspension test (reference value: 186.9 +/- 13.2 secs)
Format: functional
// reported Time per item
// return numeric value only (unit: s, not printed)

Example results:
{"columns": ["query-smiles", "value-type", "measured"],
 "data": [
  ["CCN1/C(=C/c2ccc3cc(Br)ccc3[n+]2CC)C=Cc2ccccc21.[I-]", "Time", 190],
  ["CCN1/C(=C/c2ccc3cc(OC)ccc3[n+]2CC)C=Cc2ccccc21.[I-]", "Time", 135.7]
]}

Query compound follows.
Would you mind telling me what Time value was observed for "CC(C)[n+]1ccc(/C=C2/C=Cc3ccccc3N2C)c2ccccc21.O=C([O-])C(F)(F)F" ?
152.8
